For each entry below, report its activity coefficient value.
# procedure_text: activity coefficient (dimensionless); of the first substance listed, at infinite dilution; xn = mol fraction of the nth substance listed
# conditions: 333.15 K; 101 kPa; Liquid; Chromatography; x1 = 0
Answer using only a numeral; do not append any unit.

Lookup: Quick one: activity coefficient of CCC1CCCCC1 [ethylcyclohexane] + CCCC[N+]1(C)CCCC1.O=C1O[B-]2(OC1=O)OC(=O)C(=O)O2 ?
Found: 41.8

Lookup: Quick check: activity coefficient of ClC(Cl)(Cl)Cl [tetrachloromethane] + CCCC[N+]1(C)CCCC1.N#C[B-](C#N)(C#N)C#N ?
Found: 2.43

Lookup: # activity coefficient lookup, item Cc1ccccc1 [toluene] + CCCC[N+]1(C)CCCC1.O=C1O[B-]2(OC1=O)OC(=O)C(=O)O2
Found: 2.57
